test system: HEK293 cells overexpressing human a-syn (WT); assay: Cytotoxicity screen of lentiviral 7-mer peptide library, Alpha Syn (WT) cells under MG132; type: cell-based; conditions: normalized Illumina peptide counts, 10 µM MG132
Catalogue of substances with associated Reads 10 UM MG132
quantity_measured: Reads 10 UM MG132

| substance | system_under_test | measured |
| --- | --- | --- |
| AAYNLCA [7-mer library hit, Alpha Syn screen] | HEK293 cells overexpressing human a-syn (WT) | 14 |
| RAPSCHL [7-mer library hit, Alpha Syn screen] | HEK293 cells overexpressing human a-syn (WT) | 13 |
| PLPTGMG [7-mer library hit, Alpha Syn screen] | HEK293 cells overexpressing human a-syn (WT) | 3 |
| LPASMPC [7-mer library hit, Alpha Syn screen] | HEK293 cells overexpressing human a-syn (WT) | 16 |
| GAAAGGT [7-mer library hit, Alpha Syn screen] | HEK293 cells overexpressing human a-syn (WT) | 10 |
| LSGECVP [7-mer library hit, Alpha Syn screen] | HEK293 cells overexpressing human a-syn (WT) | 28 |
| CMVHSAG [7-mer library hit, Alpha Syn screen] | HEK293 cells overexpressing human a-syn (WT) | 14 |
| DWLMVNL [7-mer library hit, Alpha Syn screen] | HEK293 cells overexpressing human a-syn (WT) | 13 |
| LQVGVAV [7-mer library hit, Alpha Syn screen] | HEK293 cells overexpressing human a-syn (WT) | 25 |
| IPIQLKA [PDpep1, top hit of all screens; maps to CHMP2B residues 203-209] | HEK293 cells overexpressing human a-syn (WT) | 1 |

---

system: HEK293 cells overexpressing A53T a-syn; assay: Cytotoxicity screen of lentiviral 7-mer peptide library, Alpha syn A53T cells under MG132; type: cell-based, human; details: normalized Illumina peptide counts, 10 µM MG132
Binary classification by Reads 10 UM MG132, with 7 as an inclusive lower bound for MET; all other cases are NOT MET.

| substance | label_value |
| --- | --- |
| PAMQIDG [7-mer library hit, A53T screen] | MET |
| IPIQLKA [PDpep1, top hit of all screens; maps to CHMP2B residues 203-209] | MET |
| QVSVAQQ [7-mer library hit, A53T screen] | MET |
| QSPSSAW [7-mer library hit, A53T screen] | MET |
| QSVLQQV [7-mer library hit, A53T screen] | NOT MET |
| EDVNKCV [7-mer library hit, A53T screen] | NOT MET |
| QAELSNS [7-mer library hit, A53T screen] | MET |
| QSVVTAP [7-mer library hit, A53T screen] | NOT MET |
